These entries and their values trace back to patent US7683065B2.

target: NaV1.8 (Homo sapiens); experiment: Activity against NaV 1.8 channel (NaV inhibition assays, Table 4); format: cell-based
pIC50: −log10 of the molar value.
Recorded measurements of pIC50, one per entry

CC(C)COC(=O)N1CCN(c2cc(-c3ccccc3O)ccn2)CC1 :: < 4.82

Q) Name the recorded pIC50 for `CC(C)COC(=O)N1CCN(c2cccc(-c3ccccc3O)n2)CC1` .
A) 4.82 to 5.00

Q) Name the recorded pIC50 for `CC(C)COC(=O)N1CCN(c2ccnc(-c3ccccc3O)c2)CC1` .
A) < 4.82

Q) Name the recorded pIC50 for `CC(C)C[C@@H](O)C(=O)N1CCN(c2cccc(-c3ccccc3O)n2)CC1` .
A) > 5.00
